# test.details: Pharmacokinetics in Sprague Dawley rats (plasma and brain concentrations, PK parameters)
# Format: in vivo
# protocol.conditions: Sprague-Dawley, rat, plasma, iv, 3 mg/kg, Sprague Dawley rat, iv 3 mg/kg, plasma, 0.5 h, Rat 2; read-out: Concentration Rat 2

>  <compound>
O=C1CCC(N2C(=O)c3cccc(NCCOCCOCCNCc4ccc(-n5cc(NC(=O)c6coc(-c7ccnc(NCC8CC8)c7)n6)c(C(F)F)n5)cc4)c3C2=O)C(=O)N1 (stereo not shown) [I-210]

>  <concentration at 0.5 h / ng/mL>
292

$$$$

* * *

# test.details: Pharmacokinetics in Sprague Dawley rats (plasma and brain concentrations, PK parameters)
# Format: in vivo
# protocol.conditions: Sprague-Dawley, rat, plasma, iv, 3 mg/kg, Sprague Dawley rat, iv 3 mg/kg, plasma, 2 h, Rat 3; read-out: Concentration Rat 3
measured.quantity: concentration at 2 h

>  <compound>
O=C1CCC(N2C(=O)c3cccc(NCCOCCOCCNCc4ccc(-n5cc(NC(=O)c6coc(-c7ccnc(NCC8CC8)c7)n6)c(C(F)F)n5)cc4)c3C2=O)C(=O)N1 (stereo not shown)

>  <measured.quantity>
concentration at 2 h

>  <result>
132 ng/mL

$$$$

* * *

# test.details: Pharmacokinetics in CD-1 mice (plasma concentrations, PK parameters)
# Type: in vivo
# protocol.conditions: CD-1, mouse, plasma, iv, 2 mg/kg, mouse (CD1) iv 2 mg/kg; 8 h; individual Mouse 1-3
Listing: concentration at 8 h of selected compounds
measured.quantity: concentration at 8 h

>  <compound>
NC(=O)c1nn(-c2ccc(C(=O)NCCCCCNCCNc3cccc4c3C(=O)N(C3CCC(=O)NC3=O)C4=O)cc2)cc1NC(=O)c1coc(-c2ccnc(NCC(F)(F)F)c2)n1 (centres unmarked)

>  <measured.quantity>
concentration at 8 h

>  <result>
2.62 ng/mL

$$$$
>  <compound>
O=C1CCC(N2C(=O)c3cccc(NCCOCCOCCNCc4ccc(-n5cc(NC(=O)c6coc(-c7ccnc(NCC8CC8)c7)n6)c(C(F)F)n5)cc4)c3C2=O)C(=O)N1 (centres unmarked)

>  <measured.quantity>
concentration at 8 h

>  <result>
5.72 ng/mL

$$$$

* * *

Listing: DC50 of selected compounds
# experimental.target: UniProt:Q9NWZ3
# test.details: OCI-LY-10 MSD assay for IRAK4 DC50
# Assay type: cell-based
# Design: endogenous in cells; host or cells: OCI-LY10
# protocol.conditions: OCI-LY10 cells, 4 hr incubation, concentration required to degrade 50% of protein
measured.quantity: DC50

>  <compound>
CN(C[C@@H]1CN(CCCc2cccc3c2n(C)c(=O)n3C2CCC(=O)NC2=O)CCO1)C(=O)c1ccc(-n2cc(NC(=O)c3coc(-c4ccnc(NCC5CC5)c4)n3)c(C(F)F)n2)cc1 (some centres unmarked)

>  <result>
< 50 nM

$$$$
>  <compound>
Cn1c(=O)n(C2CCC(=O)NC2=O)c2cccc(CCCOCCOCCOCCOCC(=O)N3CCN(C4CCC(Nc5ncnc6[nH]cc(C7CCOCC7)c56)CC4)CC3)c21 (centres unmarked)

>  <result>
50 to 100 nM

$$$$
>  <compound>
Cn1c(=O)n(C2CCC(=O)NC2=O)c2cccc(CCCOCCCNCc3ccc(-n4cc(NC(=O)c5coc(-c6ccnc(NCC(F)(F)F)c6)n5)c(C(F)F)n4)cc3)c21 (centres unmarked)

>  <result>
< 50 nM

$$$$
>  <compound>
Cn1c(=O)n(C2CCC(=O)NC2=O)c2cccc(CCCOCCOCCNCc3ccc(-n4cc(NC(=O)c5cnn6ccc(N7CCNCC7)nc56)c(C(F)F)n4)cc3)c21 (centres unmarked)

>  <result>
100 to 500 nM

$$$$
>  <compound>
O=C1CCC(N2C(=O)c3cccc(NC4CCN(CCOCCOCCNCc5ccc(-n6cc(NC(=O)c7coc(-c8ccnc(NCC9CC9)c8)n7)c(C(F)F)n6)cc5)CC4)c3C2=O)C(=O)N1 (centres unmarked)

>  <result>
50 to 100 nM

$$$$

* * *

# experimental.target: IRAK4 (Homo sapiens)
# Sequence (Q9NWZ3 whole entry): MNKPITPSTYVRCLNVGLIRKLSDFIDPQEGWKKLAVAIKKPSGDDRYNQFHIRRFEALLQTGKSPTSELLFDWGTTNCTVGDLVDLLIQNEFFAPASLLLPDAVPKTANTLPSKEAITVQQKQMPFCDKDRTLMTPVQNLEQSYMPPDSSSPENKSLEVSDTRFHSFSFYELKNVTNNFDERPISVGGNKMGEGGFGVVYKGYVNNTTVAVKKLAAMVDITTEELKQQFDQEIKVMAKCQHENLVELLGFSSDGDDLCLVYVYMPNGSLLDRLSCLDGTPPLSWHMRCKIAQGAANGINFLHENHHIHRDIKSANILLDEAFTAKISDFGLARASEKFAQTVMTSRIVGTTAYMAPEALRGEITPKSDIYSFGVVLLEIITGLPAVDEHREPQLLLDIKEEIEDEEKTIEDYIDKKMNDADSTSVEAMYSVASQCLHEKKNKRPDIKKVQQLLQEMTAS
# test.details: OCI-LY-10 MSD assay for IRAK4 DC50
# Format: cell-based
# Parameters: endogenous in cells; host or cells: OCI-LY10
# protocol.conditions: OCI-LY10 cells, 4 hr incubation, concentration required to degrade 50% of protein
measured.quantity: DC50

>  <compound>
O=C1CCC(N2C(=O)c3cccc(NC4CCN(CCOCCOCCNC(=O)c5ccc(-n6cc(NC(=O)c7coc(-c8ccnc(NCC(F)(F)F)c8)n7)c(C(F)F)n6)cc5)CC4)c3C2=O)C(=O)N1 (stereo not drawn)

>  <measured.quantity>
DC50

>  <result>
< 50 nM

$$$$
>  <compound>
Cn1c(=O)n(C2CCC(=O)NC2=O)c2cccc(CCCN3CCO[C@@H](CNCc4ccc(-n5cc(NC(=O)c6coc(-c7ccnc(NCC8CC8)c7)n6)c(C(F)F)n5)cc4)C3)c21 (stereo partly drawn)

>  <measured.quantity>
DC50

>  <result>
< 50 nM

$$$$
>  <compound>
Cn1c(=O)n(C2CCC(=O)NC2=O)c2ccc(CCCOCCOCCNCc3ccc(-n4cc(NC(=O)c5coc(-c6ccnc(NCC7CC7)c6)n5)c(C(F)F)n4)cc3F)cc21 (stereo not drawn)

>  <measured.quantity>
DC50

>  <result>
500 to 1000 nM

$$$$
>  <compound>
Cn1c(=O)n(C2CCC(=O)NC2=O)c2ccc(CNCCCCCNCc3ccc(-n4cc(NC(=O)c5coc(-c6ccnc(NCC7CC7)c6)n5)c(C(F)F)n4)cc3)cc21 (stereo not drawn)

>  <measured.quantity>
DC50

>  <result>
< 50 nM

$$$$
>  <compound>
Cn1c(=O)n(C2CCC(=O)NC2=O)c2ccc(CN3CCN(CCO[C@H]4C[C@H](NC(=O)c5ccc(-n6cc(NC(=O)c7coc(-c8ccnc(NCC9CC9)c8)n7)c(C(F)F)n6)cc5)C4)CC3)cc21 (stereo partly drawn)

>  <measured.quantity>
DC50

>  <result>
< 50 nM

$$$$
>  <compound>
O=C1CCC(N2C[C@H](c3ccc(C#CCN4CCO[C@@H](CNCc5ccc(-n6cc(NC(=O)c7coc(-c8ccnc(NCC9CC9)c8)n7)c(C(F)F)n6)cc5)C4)cc3)OC2=O)C(=O)N1 (stereo partly drawn)

>  <measured.quantity>
DC50

>  <result>
< 50 nM

$$$$
>  <compound>
CN(C[C@H]1CN(CCCc2cccc3c2n(C)c(=O)n3C2CCC(=O)NC2=O)CCO1)C(=O)c1ccc(-n2cc(NC(=O)c3coc(-c4ccnc(NCC5CC5)c4)n3)c(C(F)F)n2)cc1 (stereo partly drawn)

>  <measured.quantity>
DC50

>  <result>
< 50 nM

$$$$
>  <compound>
Cn1cc(NC(=O)c2coc(-c3ccncc3)n2)c(C(=O)NCCOCCOCCOCCNc2cccc3c2C(=O)N(C2CCC(=O)NC2=O)C3=O)n1 (stereo not drawn)

>  <measured.quantity>
DC50

>  <result>
> 1000 nM

$$$$
>  <compound>
O=C1CCC(N2C(=O)c3ccc(N4CCN(CCOCCNC(=O)c5ccc(-n6cc(NC(=O)c7coc(-c8ccnc(NCC9CC9)c8)n7)c(C(F)F)n6)cc5)CC4)cc3C2=O)C(=O)N1 (stereo not drawn)

>  <measured.quantity>
DC50

>  <result>
50 to 100 nM

$$$$

* * *

# test.details: Pharmacokinetics in CD-1 mice (plasma concentrations, PK parameters)
# Type: in vivo
# protocol.conditions: mouse (CD1) sc 30 mg/kg; 0.500 h; Mean SC
measured.quantity: concentrations (ng/mL)

>  <molecule>
NC(=O)c1nn(-c2ccc(C(=O)NCCOCCOCCNc3cccc4c3C(=O)N(C3CCC(=O)NC3=O)C4=O)cc2)cc1NC(=O)c1coc(-c2ccnc(NCC(F)(F)F)c2)n1 (stereo not shown)

>  <measured.quantity>
concentrations

>  <result.number>
1.81

$$$$

* * *

# test.details: Pharmacokinetics in Sprague Dawley rats (plasma and brain concentrations, PK parameters)
# Assay type: in vivo
# protocol.conditions: Sprague-Dawley, rat, plasma, iv, 3 mg/kg, Sprague Dawley rat, iv 3 mg/kg, plasma, 5 min, Rat 1; read-out: Concentration Rat 1
# Protocol: Pharmacokinetics for I-127, I-172 and I-210 were determined in Sprague Dawley rats or CD-1 mice by dosing intravenous (IV), subcutaneous (SC) or per oral (PO) using facility SOPs and sampling plasma at required time points. […] Compounds were extracted from plasma, injected on reverse phase HPLC, eluted with a gradient from 5% to 95% acetonitrile in water and quantified by mass spectrometry with internal standard. […]
measured.quantity: concentration at 5 min (ng/mL)

>  <compound>
O=C1CCC(N2C(=O)c3cccc(NCCOCCOCCNCc4ccc(-n5cc(NC(=O)c6coc(-c7ccnc(NCC8CC8)c7)n6)c(C(F)F)n5)cc4)c3C2=O)C(=O)N1 (stereo not shown)

>  <result.number>
671

$$$$

All values here come from patent US10874743B2.
